Entry source: patent US20170008928A1

- Experimental System: T1, human cholecystokinin-1 receptor (human, UniProt P32238 1-428)
- T1 construct: whole, on cells; also called CCK-1R; CCK-1 receptor
- T1 sequence (looked up): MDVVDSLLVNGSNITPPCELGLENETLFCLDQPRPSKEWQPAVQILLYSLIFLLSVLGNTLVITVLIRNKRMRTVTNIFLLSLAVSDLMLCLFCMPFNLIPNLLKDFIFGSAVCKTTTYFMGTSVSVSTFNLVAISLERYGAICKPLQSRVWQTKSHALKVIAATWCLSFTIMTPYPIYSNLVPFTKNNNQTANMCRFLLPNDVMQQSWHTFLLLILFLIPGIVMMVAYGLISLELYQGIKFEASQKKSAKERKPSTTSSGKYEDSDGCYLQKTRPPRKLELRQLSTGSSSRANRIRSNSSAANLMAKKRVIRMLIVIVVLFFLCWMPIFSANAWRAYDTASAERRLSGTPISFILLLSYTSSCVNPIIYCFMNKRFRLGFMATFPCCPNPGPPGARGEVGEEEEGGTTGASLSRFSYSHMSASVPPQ
- Experiment Notes: SPA competition vs [125I]-CCK-8s, membranes
Starred links: 1 amine or outer side, 2 acyl side, 3 side chain; linkers in the order of their positions; H or OH if unused. Non-standard residues stand in square brackets, D forms with d. *: point of attachment. sY = N[C@@H](Cc1ccc(OS(=O)(=O)O)cc1)C(=O)O; C18 diacid = O=C(O)CCCCCCCCCCCCCCCCC(=O)*; γGlu = O=C(O)[C@H](CCC(=O)[*:2])N[*:1]; NMeF = CN[C@@H](Cc1ccccc1)C(=O)O; dNMeD = CN[C@H](CC(=O)O)C(=O)O; Nle = CCCC[C@H](N)C(=O)O; AEEA = NCCOCCOCC(=O)O
Would you kindly list IC50 for each of these binders?
One number for each entry, in nM.

Some entries whose results are on file:
{C18 diacid}-GSSGSSD[sY]LGW[Nle][dNMeD][NMeF]-NH2 (SMILES CCCC[C@H](NC(=O)[C@H](Cc1c[nH]c2ccccc12)NC(=O)CNC(=O)[C@H](CC(C)C)NC(=O)[C@H](Cc1ccc(OS(=O)(=O)O)cc1)NC(=O)[C@H](CC(=O)O)NC(=O)[C@H](CO)NC(=O)[C@H](CO)NC(=O)CNC(=O)[C@H](CO)NC(=O)[C@H](CO)NC(=O)CNC(=O)CCCCCCCCCCCCCCCCC(=O)O)C(=O)N(C)[C@H](CC(=O)O)C(=O)N(C)[C@@H](Cc1ccccc1)C(N)=O, X = Nle or Nal; The Gly-Ser-Ser-Gly-Ser-Ser linker is written as part of the chain) [17-Carboxyheptadecanoyl-Gly-Ser-Ser-Gly-Ser-Ser-Asp-sTyr-Leu-Gly-Trp-Nle-DMeAsp-MePhe-amide]	0.072
{C18 diacid-γGlu-AEEA-AEEA}-D[sY]FGW[Nle][dNMeD][NMeF]-NH2 (SMILES CCCC[C@H](NC(=O)[C@H](Cc1c[nH]c2ccccc12)NC(=O)CNC(=O)[C@H](Cc1ccccc1)NC(=O)[C@H](Cc1ccc(OS(=O)(=O)O)cc1)NC(=O)[C@H](CC(=O)O)NC(=O)COCCOCCNC(=O)COCCOCCNC(=O)CC[C@H](NC(=O)CCCCCCCCCCCCCCCCC(=O)O)C(=O)O)C(=O)N(C)[C@H](CC(=O)O)C(=O)N(C)[C@@H](Cc1ccccc1)C(N)=O, X = Nle or Nal)	0.065
{C18 diacid-γGlu-AEEA-AEEA}-D[sY]AGW[Nle][dNMeD][NMeF]-NH2 (SMILES CCCC[C@H](NC(=O)[C@H](Cc1c[nH]c2ccccc12)NC(=O)CNC(=O)[C@H](C)NC(=O)[C@H](Cc1ccc(OS(=O)(=O)O)cc1)NC(=O)[C@H](CC(=O)O)NC(=O)COCCOCCNC(=O)COCCOCCNC(=O)CC[C@H](NC(=O)CCCCCCCCCCCCCCCCC(=O)O)C(=O)O)C(=O)N(C)[C@H](CC(=O)O)C(=O)N(C)[C@@H](Cc1ccccc1)C(N)=O, X = Nle or Nal)	0.068

From here, focus on the item given below.
Data request, read-out IC50, for {C18 diacid-γGlu-AEEA-AEEA}-D[sY][Nle]GW[Nle][dNMeD]W-NH2 (SMILES CCCC[C@H](NC(=O)[C@H](Cc1ccc(OS(=O)(=O)O)cc1)NC(=O)[C@H](CC(=O)O)NC(=O)COCCOCCNC(=O)COCCOCCNC(=O)CC[C@H](NC(=O)CCCCCCCCCCCCCCCCC(=O)O)C(=O)O)C(=O)NCC(=O)N[C@@H](Cc1c[nH]c2ccccc12)C(=O)N[C@@H](CCCC)C(=O)N(C)[C@H](CC(=O)O)C(=O)N[C@@H](Cc1c[nH]c2ccccc12)C(N)=O, X = Nle or Nal)
0.91
